Cited source: patent US20150004189A1

target: HLA-DQ molecule DQB1*0602 (human); experiment: inhibition of radiolabeled peptide binding to purified HLA-DQ
pIC50: −log10 of the molar value.
Mark 0 (no) for pIC50 values under 6, and 1 (yes) for everything at or above.

IFSQNMNIKLQMPLY [Cup a 1 (71-85) peptide IFSQNMNIKLQMPLY]
1 (yes)
IVYIKPAKNIYSFNE [Bet v 6 (211-225) peptide IVYIKPAKNIYSFNE]
1 (yes)

Turning now to a further record.
Kindly determine if pIC50 recorded for GSDEKNLALSIKYNK [Dac g 2 (11-25) peptide GSDEKNLALSIKYNK] is above or exactly 6. 1 (yes)
